B1: PhoQ; a variant is named by its letters at X, in order, P23837 (parent)
chain: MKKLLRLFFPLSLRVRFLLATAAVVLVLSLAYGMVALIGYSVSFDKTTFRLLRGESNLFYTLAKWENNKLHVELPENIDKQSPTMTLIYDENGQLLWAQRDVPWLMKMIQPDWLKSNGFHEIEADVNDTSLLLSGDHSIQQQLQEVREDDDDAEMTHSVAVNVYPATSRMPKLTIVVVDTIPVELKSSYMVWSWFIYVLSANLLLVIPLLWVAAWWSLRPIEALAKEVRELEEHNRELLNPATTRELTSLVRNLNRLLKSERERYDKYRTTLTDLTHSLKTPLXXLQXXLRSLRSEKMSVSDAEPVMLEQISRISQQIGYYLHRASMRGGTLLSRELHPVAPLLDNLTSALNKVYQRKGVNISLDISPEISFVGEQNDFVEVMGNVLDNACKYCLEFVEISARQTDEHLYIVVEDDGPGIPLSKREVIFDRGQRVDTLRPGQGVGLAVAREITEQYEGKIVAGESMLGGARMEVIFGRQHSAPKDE

Variants of: B1
Test: enrichment ratio after two sorts for PhoP signalling (ratio (wild type AVST 3.29)); higher = more functional
Conditions: with PhoP (E. coli)
Whole data set: some 140,000 sequences, median “enrichment ratio after two sorts for PhoP signalling” near 0, cut for the highest 2% near 11. The full list was thinned out, with the highest values kept by preference.

mutation-key	enrichment ratio
AHAL	≤ 0.25
AQAL	18.4
AEGH	12.9
REPM	≤ 0.25
FFDG	≤ 0.25
AEMH	36.8
AEQH	≤ 0.25
VGMT	≤ 0.25
NVTV	≤ 0.25
KYAV	≤ 0.25
QHTM	≤ 0.25
AKAL	11.1
EYAR	≤ 0.25
SIFT	≤ 0.25
MVAL	11.3
KSAL	≤ 0.25
TSTV	26.5
QTDG	13.5
GVAL	1.02
PVDG	≤ 0.25
NVAL	≤ 0.25
SAVY	1.85
YGPP	≤ 0.25
FTDG	≤ 0.25
MFQM	≤ 0.25
MYMC	≤ 0.25
SIAV	12.2
TVDG	≤ 0.25
SETV	14.9
FCDG	≤ 0.25
VKAH	≤ 0.25
PTIT	≤ 0.25
STIV	11.9
THPY	≤ 0.25
YTIV	0.385
QSDG	11.8
RVKS	≤ 0.25
GWGM	≤ 0.25
MMTV	≤ 0.25
IERL	≤ 0.25
TSAL	13
VRAL	≤ 0.25
QVDG	30.4
IPYG	≤ 0.25
